The reported measurements were obtained from PubChem BioAssay AID1963868.

system: KRAS PDC tumor spheroids (HUVEC+MSC), viability; assay: Anticancer human tumor 254851-301-R-J1-PDC patient-derived colon carcinoma cell line growth inhibition [KRAS2]; settings: second compound 10 µM; first compound 1 µM; stronger effect = lower value
Reported Property: viability, T/C (%)
Numbers only, in %.

| Molecule | viability, T/C, % |
| --- | --- |
| CC(=O)OC12COC1CC(O)C1(C)C(=O)C(O)C3=C(C)C(OC(=O)C(O)C(NC(=O)OC(C)(C)C)c4ccccc4)CC(O)(C(OC(=O)c4ccccc4)C21)C3(C)C (stereo not drawn) + CNCc1ccccc1-c1csc(C(C)Nc2nc(C)nc3cc(OC)c(OC)cc23)c1 | 24.2 |
| CCNC(=O)CC1N=C(c2ccc(Cl)cc2)c2cc(OC)ccc2-n2c(C)nnc21 (stereo not drawn) + CNCc1ccccc1-c1csc(C(C)Nc2nc(C)nc3cc(OC)c(OC)cc23)c1 | 0.08 |
| CCNC(=O)CC1N=C(c2ccc(Cl)cc2)c2cc(OC)ccc2-n2c(C)nnc21 (stereo not drawn) + C=CC(=O)N1CCN(c2nc(=O)n(-c3c(C)ccnc3C(C)C)c3nc(-c4c(O)cccc4F)c(F)cc23)C(C)C1 | 91.2 |

Count: 4. Required value per item: viability, T/C.
1. CC(C)NCC(C(=O)N1CCN(c2ncnc3c2C(C)CC3O)CC1)c1ccc(Cl)cc1 (stereo not drawn) + CNCc1ccccc1-c1csc(C(C)Nc2nc(C)nc3cc(OC)c(OC)cc23)c1
2. CC1COCCN1c1cc(-c2ccnn2C)c2ccnc(-c3ccn[nH]3)c2n1 (stereo not drawn) + COc1cc2nc(C)nc(NC(C)c3cc(N)cc(C(F)(F)F)c3)c2cc1OC1CCOC1
3. CC(C)NCC(C(=O)N1CCN(c2ncnc3c2C(C)CC3O)CC1)c1ccc(Cl)cc1 (stereo not drawn) + C=CC(=O)N1CCN(c2nc(=O)n(-c3c(C)ccnc3C(C)C)c3nc(-c4c(O)cccc4F)c(F)cc23)C(C)C1
4. CC1COCCN1c1cc(-c2ccnn2C)c2ccnc(-c3ccn[nH]3)c2n1 (stereo not drawn) + CC1OCC2(CCN(c3cnc(Sc4ccnc(N)c4Cl)c(N)n3)CC2)C1N

1. 0.17
2. 21.8
3. 85.4
4. 27.2

What viability, T/C appears in the records for this molecule with KRAS PDC tumor spheroids (HUVEC+MSC), viability? COc1cc(Nc2ncc3c(n2)-c2ccc(Cl)cc2C(c2c(F)cccc2OC)=NC3)ccc1C(=O)O + CC1OCC2(CCN(c3cnc(Sc4ccnc(N)c4Cl)c(N)n3)CC2)C1N
19.8

====

tested on: KRAS PDC tumor spheroids (HUVEC+MSC), viability; test: Anticancer human tumor 254851-301-R-J1-PDC cell line growth inhibition [KRAS2]; conditions: second compound 3.16 µM; first compound 0.01 µM; stronger effect = lower value;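 further: spheroids exposed to compounds for seven days before readout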;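 on viability, T/C: 100% = DMSO vehicle control luminescence of the spheroids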
Label TRUE when viability, T/C is strictly below 60%; otherwise label FALSE.

Solved entries (count: 5):
| Compound | Label |
| --- | --- |
| CC(=O)Nc1cccc(-n2c(=O)n(C3CC3)c(=O)c3c(Nc4ccc(I)cc4F)n(C)c(=O)c(C)c32)c1 + C=CC(=O)N1CCN(c2nc(OCC3CCCN3C)nc3c2CCN(c2cccc4cccc(C)c24)C3)CC1CC#N | TRUE |
| CN(C)C/C=C/C(=O)Nc1cc2c(Nc3ccc(F)c(Cl)c3)ncnc2cc1O[C@H]1CCOC1 + C=CC(=O)N1CCN(c2nc(=O)n(-c3c(C)ccnc3C(C)C)c3nc(-c4c(O)cccc4F)c(F)cc23)C(C)C1 | FALSE |
| Cn1ncnc1[C@H]1c2n[nH]c(=O)c3cc(F)cc(c23)N[C@@H]1c1ccc(F)cc1 + CNCc1ccccc1-c1csc(C(C)Nc2nc(C)nc3cc(OC)c(OC)cc23)c1 | FALSE |
| CC1COCCN1c1cc(-c2ccnn2C)c2ccnc(-c3ccn[nH]3)c2n1 (stereo not drawn) + COc1cc2nc(C)nc(NC(C)c3cc(N)cc(C(F)(F)F)c3)c2cc1OC1CCOC1 | FALSE |
| CCN1CCN(Cc2ccc(Nc3ncc(F)c(-c4cc(F)c5nc(C)n(C(C)C)c5c4)n3)nc2)CC1 + C=CC(=O)N1CCN(c2nc(=O)n(-c3c(C)ccnc3C(C)C)c3nc(-c4c(O)cccc4F)c(F)cc23)C(C)C1 | FALSE |

Hello, is viability, T/C of the following compound strictly smaller than 60%? CCN1CCN(Cc2ccc(Nc3ncc(F)c(-c4cc(F)c5nc(C)n(C(C)C)c5c4)n3)nc2)CC1 + COc1cc2nc(C)nc(NC(C)c3cc(N)cc(C(F)(F)F)c3)c2cc1OC1CCOC1
FALSE

Lab log: compare recorded viability, T/C with 60%; is it strictly lower for CC(C)n1nc(-c2ccc3oc(N)nc3c2)c2c(N)ncnc21 + C=CC(=O)N1CCN(c2nc(OCC3CCCN3C)nc3c2CCN(c2cccc4cccc(C)c24)C3)CC1CC#N ?
TRUE

Here's an entry: CC(C)n1nc(-c2ccc3oc(N)nc3c2)c2c(N)ncnc21 + CNCc1ccccc1-c1csc(C(C)Nc2nc(C)nc3cc(OC)c(OC)cc23)c1 . Is its viability, T/C below 60%?
TRUE

Input CC(C)n1nc(-c2ccc3oc(N)nc3c2)c2c(N)ncnc21 + C=CC(=O)N1CCN(c2nc(=O)n(-c3c(C)ccnc3C(C)C)c3nc(-c4c(O)cccc4F)c(F)cc23)C(C)C1 ; condition: viability, T/C strictly below 60%. Does it hold?
FALSE

Given the entry CC(=O)OC12COC1CC(O)C1(C)C(=O)C(O)C3=C(C)C(OC(=O)C(O)C(NC(=O)OC(C)(C)C)c4ccccc4)CC(O)(C(OC(=O)c4ccccc4)C21)C3(C)C (stereo not drawn) + COc1cc2nc(C)nc(NC(C)c3cc(N)cc(C(F)(F)F)c3)c2cc1OC1CCOC1 , would its reported viability, T/C be below 60%?
FALSE

Regarding CCN1CCN(Cc2ccc(Nc3ncc(F)c(-c4cc(F)c5nc(C)n(C(C)C)c5c4)n3)nc2)CC1 + CNCc1ccccc1-c1csc(C(C)Nc2nc(C)nc3cc(OC)c(OC)cc23)c1 , kindly confirm whether its viability, T/C is beneath 60%.
TRUE

Lab note: confirm whether the reported viability, T/C for this compound is below 60%, equality not counting. compound: CC(=O)Nc1cccc(-n2c(=O)n(C3CC3)c(=O)c3c(Nc4ccc(I)cc4F)n(C)c(=O)c(C)c32)c1 + CNCc1ccccc1-c1csc(C(C)Nc2nc(C)nc3cc(OC)c(OC)cc23)c1
TRUE

====

Please respond with reported pIC50 for every item in the list.
tested on: KRAS PDC tumor spheroids (HUVEC+MSC), viability; assay: Anticancer human tumor 254851-301-R-J1-PDC cell line growth inhibition [KRAS2]; settings: curve of first compound; second compound 1 µM;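 further: spheroids exposed to compounds for seven days before readout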
pIC50: −log10 of the molar value.

| Compound | Result Value |
| --- | --- |
| CC1(C)CCC(CN2CCN(c3ccc(C(=O)NS(=O)(=O)c4ccc(NCC5CCOCC5)c([N+](=O)[O-])c4)c(Oc4cnc5[nH]ccc5c4)c3)CC2)=C(c2ccc(Cl)cc2)C1 + CC1OCC2(CCN(c3cnc(Sc4ccnc(N)c4Cl)c(N)n3)CC2)C1N | < 5.00 |

Could I get pIC50 for every one of these entries?
1. CN(C)C/C=C/C(=O)Nc1cc2c(Nc3ccc(F)c(Cl)c3)ncnc2cc1O[C@H]1CCOC1 + CC1OCC2(CCN(c3cnc(Sc4ccnc(N)c4Cl)c(N)n3)CC2)C1N
2. CC(C)NCC(C(=O)N1CCN(c2ncnc3c2C(C)CC3O)CC1)c1ccc(Cl)cc1 (stereo not given) + C=CC(=O)N1CCN(c2nc(=O)n(-c3c(C)ccnc3C(C)C)c3nc(-c4c(O)cccc4F)c(F)cc23)C(C)C1
3. O=C(c1cc(Cc2n[nH]c(=O)c3ccccc23)ccc1F)N1CCN(C(=O)C2CC2)CC1 + C=CC(=O)N1CCN(c2nc(OCC3CCCN3C)nc3c2CCN(c2cccc4cccc(C)c24)C3)CC1CC#N

1: < 7.00; 2: < 5.00; 3: < 5.00

Dear reader, for each entry below, please note its pIC50.
1. CN(C)C/C=C/C(=O)Nc1cc2c(Nc3ccc(F)c(Cl)c3)ncnc2cc1O[C@H]1CCOC1 + COc1cc2nc(C)nc(NC(C)c3cc(N)cc(C(F)(F)F)c3)c2cc1OC1CCOC1
2. COC(=O)c1ccc2c(C(=Nc3ccc(N(C)C(=O)CN4CCN(C)CC4)cc3)c3ccccc3)c(O)[nH]c2c1 + CNCc1ccccc1-c1csc(C(C)Nc2nc(C)nc3cc(OC)c(OC)cc23)c1
3. CC1(C)CCC(CN2CCN(c3ccc(C(=O)NS(=O)(=O)c4ccc(NCC5CCOCC5)c([N+](=O)[O-])c4)c(Oc4cnc5[nH]ccc5c4)c3)CC2)=C(c2ccc(Cl)cc2)C1 + C=CC(=O)N1CCN(c2nc(=O)n(-c3c(C)ccnc3C(C)C)c3nc(-c4c(O)cccc4F)c(F)cc23)C(C)C1
4. COC(=O)c1ccc2c(C(=Nc3ccc(N(C)C(=O)CN4CCN(C)CC4)cc3)c3ccccc3)c(O)[nH]c2c1 + C=CC(=O)N1CCN(c2nc(=O)n(-c3c(C)ccnc3C(C)C)c3nc(-c4c(O)cccc4F)c(F)cc23)C(C)C1

< 7.00
< 5.00
< 5.00
< 5.00

Below are some compounds; for each one, tell me its pIC50.
1. CCNC(=O)CC1N=C(c2ccc(Cl)cc2)c2cc(OC)ccc2-n2c(C)nnc21 (stereo not given) + C=CC(=O)N1CCN(c2nc(=O)n(-c3c(C)ccnc3C(C)C)c3nc(-c4c(O)cccc4F)c(F)cc23)C(C)C1
2. O=C(c1cc(Cc2n[nH]c(=O)c3ccccc23)ccc1F)N1CCN(C(=O)C2CC2)CC1 + C=CC(=O)N1CCN(c2nc(=O)n(-c3c(C)ccnc3C(C)C)c3nc(-c4c(O)cccc4F)c(F)cc23)C(C)C1

["< 5.00", "< 5.00"]
